Origin of measurements: patent US10433548B2

tested on: B. subtilis; assay: Minimum Inhibitory Concentration (MIC) test, 96-well microtiter plate; assay type: cell-based; parameters: unit not given here; conditions: concentration of BIT; BIT alone or with potentiator, Molar Eq (Pot:BIT) 10:1
measure: MIC B. subtilis
Number, no unit, nothing else.

For O=c1cccccc1[O-].O=c1cccccc1[O-].[Zn+2] [Tropolone-Zn, zinc(tropolone)2] , what is its reported MIC B. subtilis?
0.13

For O=C(CC(=O)C(F)(F)F)c1cccs1.[Zn] [Then-Zn, thenoyl trifluoro acetone zinc salt] , what is its reported MIC B. subtilis?
1.52

For O=C(O)CN(CCN(CC(=O)O)Cc1ccccc1O)Cc1ccccc1O [HBED] , what is its reported MIC B. subtilis?
0.51

For O=C(O)CN(CCN(CC(=O)O)CC(=O)O)CCN(CC(=O)O)CC(=O)O [DTPA, diethylenetriaminepentaacetic acid] , what is its reported MIC B. subtilis?
2.03

###

test system: R. subcapitata; assay: Minimum Inhibitory Concentration (MIC) test, 96-well microtiter plate; assay type: cell-based; set-up: unit not given here; conditions: concentration of BIT; BIT alone or with potentiator, Molar Eq (Pot:BIT) 10:1
measure: MIC R. subcapitata
Number, no unit, nothing else.

For O=c1cccccc1[O-].O=c1cccccc1[O-].[Zn+2] [Tropolone-Zn, zinc(tropolone)2] , what is its reported MIC R. subcapitata?
1.02

For O=C(O)CN(CCN(CC(=O)O)CC(=O)O)CCN(CC(=O)O)CC(=O)O [DTPA, diethylenetriaminepentaacetic acid] , what is its reported MIC R. subcapitata?
0.51

For O=C(CC(=O)C(F)(F)F)c1cccs1.[Zn] [Then-Zn, thenoyl trifluoro acetone zinc salt] , what is its reported MIC R. subcapitata?
1.02

For O=c1[nH]sc2ccccc12 [BIT, benzisothiazolinone] , what is its reported MIC R. subcapitata?
8.13

For O=C(O)CN(CCN(CC(=O)O)Cc1ccccc1O)Cc1ccccc1O [HBED] , what is its reported MIC R. subcapitata?
4.06

###

Test system: A. pullulans
Assay: Minimum Inhibitory Concentration (MIC) test, 96-well microtiter plate
Type: cell-based
Set-up: unit not given here
Conditions: concentration of BIT; BIT alone or with potentiator, Molar Eq (Pot:BIT) 10:1
Procedure: Activities of antimicrobial compositions of the present invention were tested against a range of typical skin microorganisms in a Minimum Inhibitory Concentration (MIC) test. MICs for the organisms were determined in a standard 96-well microtiter plate assay in Brain Heart Infusion Broth (BHI) for P. acnes; Tryptic Soy Broth (TSB) for the remaining bacteria; Ushijima Broth for M. furfur; Sabouraud Dextrose Broth (SDB) for other fungi. Samples were tested in duplicate on separate plates. […]
measure: MIC A. pullulans
Number, no unit, nothing else.

For O=c1cccccc1[O-].O=c1cccccc1[O-].[Zn+2] [Tropolone-Zn, zinc(tropolone)2] , what is its reported MIC A. pullulans?
0.24

For O=C(O)CN(CCN(CC(=O)O)CC(=O)O)CCN(CC(=O)O)CC(=O)O [DTPA, diethylenetriaminepentaacetic acid] , what is its reported MIC A. pullulans?
2.03

For O=C(CC(=O)C(F)(F)F)c1cccs1.[Zn] [Then-Zn, thenoyl trifluoro acetone zinc salt] , what is its reported MIC A. pullulans?
4.06

For O=C(O)CN(CCN(CC(=O)O)Cc1ccccc1O)Cc1ccccc1O [HBED] , what is its reported MIC A. pullulans?
4.06
